# System: IgG
# Assay: Determination of Igs produced in in vitro culture: inhibition of IgG secreted by spleen cells (adoptive secondary immune response to DNP-As), ELISA
# Type: cell-based, BALB/c mice
# Protocol Conditions: Mus musculus, 96 h, 5.0 μg/ml, 4 days culture
Readout Type: inhibition at 5 µg/mL
Your answer should be a number followed by the unit of measure.

# input molecule: CCOC(=O)c1c(SC(C)C)c(C#N)c(=O)n2ccccc12 [S-57] ; wanted: its inhibition at 5 µg/mL
32%

Item under review: CSc1c(C#N)c(=O)n2ccccc2c1C(=O)N(CC(C)C)CC(C)C [S-64] . Reported inhibition at 5 µg/mL?
41%

Look at this molecule and give its reported inhibition at 5 µg/mL. CSc1c(C#N)c(=O)n2ccccc2c1C(=O)NC1CCCCC1 [S-72]
-5%

// inhibition at 5 µg/mL lookup, key: CSc1c(C#N)c(=O)n2ccccc2c1C(=O)OCC1CCCCC1 [S-1]
22%

Quick check: inhibition at 5 µg/mL of CSc1c(C#N)c(=O)n2ccccc2c1C(=O)OCc1ccc(C)c(C)c1 [S-25] ?
54%

What does the record list as inhibition at 5 µg/mL for CSc1c(C#N)c(=O)n2ccccc2c1C(=O)OCC1CC1 [S-2] ?
27%

GET /values?readout=inhibition at 5 µg/mL&item= CSc1c(C#N)c(=O)n2ccccc2c1C(=O)N1CCN(Cc2ccc3c(c2)OCO3)CC1 [S-89]
32%

Need inhibition at 5 µg/mL, item CSc1c(C#N)c(=O)n2ccccc2c1C(=O)OCCC(C)C [S-11]
30%

Report inhibition at 5 µg/mL for CSc1c(C#N)c(=O)n2ccccc2c1C(=O)OC1CCCCCCC1 [S-20] please.
52%
